Source of measurements: patent US12187746B2

Test system: P-4E-BP1 (T37/46)
Experiment: Cell based AlphaLISA assay, inhibition of P-4E-BP1 (T37/46) in MDA-MB-468 cells
Details: Homo sapiens, 4 h, 0.017-1,000 nM, two to four hours at 37° C., AlphaLisa SureFire Ultra, read-out: pIC50 for Inhibition of mTORC1 and mTORC2 Substrate Phosphorylation, p-4E-BP1-(T37/46) (converted)
measuredEndpoint: IC50

In plain terms, CO[C@H]1C[C@@H]2CC[C@@H](C)[C@@](O)(O2)C(=O)C(=O)N2CCCC[C@H]2C(=O)O[C@H]([C@H](C)C[C@@H]2CC[C@@H](O)[C@H](OC)C2)C[C@@H](O)[C@H](C)/C=C(\C)[C@@H](O)[C@@H](OC)C(=NOCC(=O)N2CCc3nc(N4CCN(c5ncc(C(=O)NCCOCCOCCOCCC(=O)NCCCCn6nc(-c7ccc8oc(N)nc8c7)c7c(N)ncnc76)cn5)CC4)ncc3C2)[C@H](C)C[C@H](C)/C=C/C=C/C=C/1C [Example 15] has a documented IC50 of 0.00316 to 0.0316 µM

###

Tested on: P-4E-BP1 (T37/46)
Test: Cell based AlphaLISA assay, inhibition of P-4E-BP1 (T37/46) in MDA-MB-468 cells
Details: Homo sapiens, 4 h, 0.017-1,000 nM, two to four hours at 37° C., AlphaLisa SureFire Ultra, read-out: pIC50 for Inhibition of mTORC1 and mTORC2 Substrate Phosphorylation, p-4E-BP1-(T37/46) (converted)
Protocol: Cell Based AlphaLISA Assays For Determining IC50 For Inhibition of P-Akt (S473), P-4E-BP1 (T37/46), and P-P70S6K (T389) in MDA-MB-468 Cells mTOR Kinase Cellular Assay To measure functional activity of mTORC1 and mTORC2 in cells the phosphorylation of 4EBP1 (Thr37/46) and P70S6K (Thr389), and AKT1/2/3 (Ser473) was monitored using AlphaLisa SureFire Ultra Kits (Perkin Elmer). […] Incubations are terminated by removal of the assay buffer and addition of lysis buffer provided with the assay kit. […]
IC50 by entry:

compound="CO[C@H]1C[C@@H]2CC[C@@H](C)[C@@](O)(O2)C(=O)C(=O)N2CCCC[C@H]2C(=O)O[C@H]([C@H](C)C[C@@H]2CC[C@@H](O)[C@H](OC)C2)C[C@@H](O)[C@H](C)/C=C(\\C)[C@@H](O)[C@@H](OC)C(=NOc2cccc(C(=O)NCc3cnc(N4CCN(C(=O)CCOCCN5CCN(c6ncc(C(=O)N7CCc8cc(Cn9nc(-c%10ccc%11oc(N)nc%11c%10)c%10c(N)ncnc%109)ccc8C7)cn6)CC5)CC4)nc3)c2)[C@H](C)C[C@H](C)/C=C/C=C/C=C/1C [Example 35]" observedvalue="> 1000 nM"

We next turn to a different compound, shown below.
In plain terms, CC(C)n1nc(-c2ccc3oc(N)nc3c2)c2c(N)ncnc21 [MLN-128, MLN0128, reference compound] has a documented IC50 of 3.16 to 31.6 nM
